B1: tRNA (parent)
chain: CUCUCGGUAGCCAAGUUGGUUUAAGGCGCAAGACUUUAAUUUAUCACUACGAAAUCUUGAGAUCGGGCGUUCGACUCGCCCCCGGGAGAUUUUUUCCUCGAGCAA

Variants of: B1
assay-details: nonsense suppression (GFP-seq) (ratio to wild type); higher = more function; SUP4oc tRNA, yeast GFP reporter sort-seq
This sample holds only a part of the variants without activity.
Kindly return YES if reported nonsense suppression is no lower than 0.2; return NO if it is lower.

[[record]]
sequence_variant = "G61C C68U"
class_label = "YES"

[[record]]
sequence_variant = "U70A U76G"
class_label = "NO"

[[record]]
sequence_variant = "U2A C81U"
class_label = "NO"


// next entry
Ask: Evaluate A30U A62G C81G : nonsense suppression at minimum 0.2?
Reply: NO

Data provenance: the RNAGym collection of RNA variant scans (doi:10.1101/gad.245936.114)
